Examples of compounds with documented Inhibition follow.
Test system: Cavia porcellus
Assay: Evaluated for the percent inhibition of arachidonate-induced hypertension resulting in decreases in blood pressure at 60 min after dosing (0.1 mg/kg iv) in anesthetized guinea pig.
Format: functional
Reply with just the number (in %).

Field: example entries. Status: answers known.
O=C(O)CCC/C=C/CC1C2CCC(O2)C1CNC(=O)CNC(=O)CCCC1CCCCC1 (stereo not drawn) : 289
CCCCCCCCC(=O)NCC(=O)NCC1C2CCC(O2)C1C/C=C/CCCC(=O)O (stereo not drawn) : 138
CC(C)(C)c1ccc(SCC(=O)NCC(=O)NCC2C3CCC(O3)C2C/C=C/CCCC(=O)O)cc1 (stereo not drawn) : 184
O=C(O)CCC/C=C/CC1C2CCC(O2)C1CNNC(=O)Nc1ccccc1 (racemic) : 59

Give Inhibition (Cavia porcellus) of the following compound: CCCCCCCC(=O)NCC(=O)NCC1C2CCC(O2)C1C/C=C/CCCC(=O)O (stereo in doubt; 51)
130

Give Inhibition (Cavia porcellus) of the following compound: O=C(O)CCC/C=C/CC1C2CCC(O2)C1CNC(=O)CNC(=O)CSc1ccccc1 (stereo not drawn)
235

Give Inhibition (Cavia porcellus) of the following compound: CCCCCCCC(=O)NCC(=O)NCC1C2CCC(O2)C1C/C=C/CCCC(=O)O (single isomer, unassigned; (-))
90

Give Inhibition (Cavia porcellus) of the following compound: CCCCCC/C(S)=N/CC(=O)NCC1C2CCC(O2)C1C/C=C/CCCC(=O)O (stereo not drawn)
158

---

Examples of molecules with documented pIC50 follow.
Organism: Homo sapiens
Assay: Evaluated for ability to inhibit platelet aggregation of human platelet-rich plasma (PRP) induced by 11.9-epoxymethano-PGH2
Assay type: functional
Conditions: read-out: I50
Recall that pIC50 is obtained by taking minus log10 of the concentration measured in molar.

O=C(O)CCC/C=C/CC1C2CCC(O2)C1CNC(=O)CNC(=O)CCCCC1CCCCC1 (centres undefined) : 5.71
O=C(O)CCC/C=C/CC1C2CCC(O2)C1CNC(=O)CNC(=O)CCCC1CCCCC1 (centres undefined) : 6.92
CC(C)(C)c1ccc(SCC(=O)NCC(=O)NCC2C3CCC(O3)C2C/C=C/CCCC(=O)O)cc1 (centres undefined) : 6.82

Turning to the following molecule.
What value of pIC50 has been reported for the following molecule? O=C(O)CCC/C=C/CC1C2CCC(O2)C1CNC(=O)CNC(=O)CSc1ccccc1 (centres undefined)
6.96

---

Test system: Cavia porcellus
Experiment: Evaluated for the percent inhibition of arachidonate-induced air-way resistance at 60 min after dosing (0.1 mg/kg iv) in anesthetized guinea pig.
Assay type: functional
# label = true if Inhibition >= 40% else false

O=C(O)CCC/C=C/CC1C2CCC(O2)C1CNC(=O)CNC(=O)CCCC1CCCCC1 (stereo not drawn) : true
CCCCCCCC(=O)NCC(=O)NCC1C2CCC(O2)C1C/C=C/CCCC(=O)O (single isomer, unassigned; (-)) : false

Please indicate if the recorded Inhibition for O=C(O)CCC/C=C/CC1C2CCC(O2)C1CNC(=O)CNC(=O)CSc1ccccc1 (stereo not drawn) meets or exceeds 40%.
true

Please indicate if the recorded Inhibition for O=C(O)CCC/C=C/CC1C2CCC(O2)C1CNNC(=O)Nc1ccccc1 (racemic) meets or exceeds 40%.
true

Please indicate if the recorded Inhibition for CCCCCCCC(=O)NCC(=O)NCC1C2CCC(O2)C1C/C=C/CCCC(=O)O (stereo in doubt; 51) meets or exceeds 40%.
true

Please indicate if the recorded Inhibition for CCCCCC/C(S)=N/CC(=O)NCC1C2CCC(O2)C1C/C=C/CCCC(=O)O (stereo not drawn) meets or exceeds 40%.
true

Please indicate if the recorded Inhibition for CCCCCCCCC(=O)NCC(=O)NCC1C2CCC(O2)C1C/C=C/CCCC(=O)O (stereo not drawn) meets or exceeds 40%.
false

Please indicate if the recorded Inhibition for CC(C)(C)c1ccc(SCC(=O)NCC(=O)NCC2C3CCC(O3)C2C/C=C/CCCC(=O)O)cc1 (stereo not drawn) meets or exceeds 40%.
true
